Ref: patent US6211182A

TARGET UNDER TEST: H3 receptor (Cavia porcellus, UniProt Q9JI35)
Construct: The source of the H3 receptors in this experiment was guinea pig brain; from tissue; host or cells: guinea pig brain membranes
Sequence (Q9JI35 whole entry): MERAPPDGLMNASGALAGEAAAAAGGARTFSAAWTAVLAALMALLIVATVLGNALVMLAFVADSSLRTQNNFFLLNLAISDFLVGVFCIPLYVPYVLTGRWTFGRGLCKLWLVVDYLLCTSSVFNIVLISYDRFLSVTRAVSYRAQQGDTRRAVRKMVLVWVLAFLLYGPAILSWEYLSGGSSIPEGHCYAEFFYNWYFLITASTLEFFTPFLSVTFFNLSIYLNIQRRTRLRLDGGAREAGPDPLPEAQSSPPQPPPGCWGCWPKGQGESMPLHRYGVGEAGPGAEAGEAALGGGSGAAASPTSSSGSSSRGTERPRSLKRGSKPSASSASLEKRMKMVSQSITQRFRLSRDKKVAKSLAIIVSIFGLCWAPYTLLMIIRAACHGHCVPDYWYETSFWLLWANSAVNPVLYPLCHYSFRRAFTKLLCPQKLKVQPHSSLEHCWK
ASSAY PROCEDURE: H3 Receptor Binding Assay (guinea pig brain membranes, [3H]R-α-methylhistamine or [3H]-N-methylhistamine)
SETUP CONDITIONS: unit given as mM
Procedure: Procedure for H3 Receptor Binding Assay The source of the H3 receptors in this experiment was guinea pig brain. The animals used weighed 400-600 g. The tissue was homogenized using a Polytron in a solution of 50 mM Tris, pH 7.5. The final concentration of tissue in the homogenization buffer was 10% w/v. The homogenates were centrifuged at 1000×g for 10 min. in order to remove clumps of tissue and debris. […]

{"COMPOUND": "CCOC(=O)C1CN(Cc2ccc(Cl)cc2)CCN1CCCCc1c[nH]cn1 (stereo not shown)", "Ki [nM]": 26}
